Test system: Escherichia coli TOP10;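 also: peptides expressed intracellularly from a pBAD plasmid library in pooled LB shake-flask culture, induced with 0.3% L-arabinose, DNA abundance read by NGS, three biological replicates, DESeq2 with apeglm shrinkage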
Experiment: shrunken log2 fold change of peptide-encoding DNA abundance (4.5 h post-induction vs induction); higher = less antimicrobial activity (less host growth inhibition)
Conditions: time post-induction: 4.5 h; library: site-saturation at positions 5, 18, 19, 20
I'd appreciate it if you could supply shrunken log2 fold change values for the items below.
Could you respond with only the numeric value?

Query: shrunken log2 fold change; subject: `RRIRSRPPRLPRPRPRPCSEPRP`
-0.228

Entry to check: `RRIRTRPPRLPRPRPRPQSFPRP`
0.015

Likewise for `RRIRKRPPRLPRPRPRPLLCPRP` ?
0.347

Now give it for `RRIRMRPPRLPRPRPRPKMYPRP` too.
0.0587

And then `RRIRHRPPRLPRPRPRPSGNPRP` , what is it?
-0.199

Next entry: `RRIRLRPPRLPRPRPRPIHSPRP`
-1.61

Same lookup for `RRIRQRPPRLPRPRPRPWYYPRP` , please.
0.0179

Please give the result for `RRIRQRPPRLPRPRPRPAGNPRP` too.
-0.0449

Entry `RRIRQRPPRLPRPRPRPHGCPRP` please
0.0414

Queued: `RRIRHRPPRLPRPRPRPRASPRP`
0.286

Next record, please: `RRIRVRPPRLPRPRPRPHSIPRP`
-0.155

Now the same for `RRIRHRPPRLPRPRPRPIHVPRP`
0.0364

Next sequence: `RRIRMRPPRLPRPRPRPYATPRP`
-0.0602

Try this sequence too: `RRIRKRPPRLPRPRPRPAMLPRP`
0.292

Now consider `RRIRMRPPRLPRPRPRPQMAPRP` .
0.349

Same question for `RRIRRRPPRLPRPRPRPYMQPRP` please.
-0.264

How about `RRIRRRPPRLPRPRPRPLVQPRP` ?
0.355

Further, for `RRIRMRPPRLPRPRPRPQTTPRP` ?
0.634

Next sequence up: `RRIRARPPRLPRPRPRPWTQPRP`
0.0723

Also check `RRIRLRPPRLPRPRPRPRYVPRP`
-0.265

Try this sequence next: `RRIRIRPPRLPRPRPRPQCRPRP`
-0.0364

And the next one, `RRIRKRPPRLPRPRPRPERKPRP` ?
0.582

Another: `RRIRPRPPRLPRPRPRPKWHPRP`
0.173

Another sequence to look at: `RRIRLRPPRLPRPRPRPGFLPRP`
0.0856

Next sequence: `RRIRIRPPRLPRPRPRPIEFPRP`
-0.0138

Now the same for `RRIRLRPPRLPRPRPRPKFIPRP`
-0.304

Entry `RRIRRRPPRLPRPRPRPADFPRP` please
0.115

One more sequence: `RRIRTRPPRLPRPRPRPITPPRP`
-0.237

Further, for `RRIRDRPPRLPRPRPRPQLAPRP` ?
0.505

Continue with `RRIRRRPPRLPRPRPRPEVHPRP`
0.648

Please give the result for `RRIRYRPPRLPRPRPRPQKVPRP` too.
-0.209

Try the sequence `RRIRPRPPRLPRPRPRPIHSPRP`
-0.0694

And `RRIRHRPPRLPRPRPRPTFNPRP` ?
-0.612

Quick one: `RRIRNRPPRLPRPRPRPCKKPRP`
-0.0371

Again, but for `RRIRDRPPRLPRPRPRPQWAPRP`
0.326
